method summary: Caco-2 cell permeability
assay setup: human, Caco-2
measured attribute: efflux ratio
Write the number on its own, no unit after it.

Summary for this compound, CC[C@H]1[C@@H](O)[C@@H]2[C@H](CC[C@]3(C)[C@@H]([C@H](C)CCC(=O)O)CC[C@@H]23)[C@@]2(C)CC[C@@H](O)C[C@@H]12 [Obeticholic acid, reference compound] : efflux ratio is 0.0989

---

method summary: Caco-2 cell permeability
assay setup: human, Caco-2
measured attribute: Papp A→B (×10⁻⁶ cm/s)
Write the answer as a number in ×10⁻⁶ cm/s, unit excluded.

Solved entries (count: 2):
molecule: O=C(O)Cc1ccccc1Nc1c(Cl)cccc1Cl [Diclofenac, reference compound]
measured attribute: Papp A→B
val: 34.5
//
molecule: CC(C)Cc1ccc(C(C)C(=O)O)cc1 (stereo not drawn) [Ibuprofen, reference compound]
measured attribute: Papp A→B
val: 40.5

The record that follows has no Papp A→B shown yet.
Input CC[C@H]1[C@@H](O)[C@@H]2[C@H](CC[C@]3(C)[C@@H]([C@H](C)CCC(=O)O)CC[C@@H]23)[C@@]2(C)CC[C@@H](O)C[C@@H]12 [Obeticholic acid, reference compound] . Output Papp A→B: 32.6
